System: KM12 colon
Test: NCI tumour cell line growth inhibition, 48 h; in the data active = GI50 below about 0.43 µM; inactive = the rest
Answer with one of the outcomes given here: active, inactive

| Compound | Experimental Target | Label Class |
| --- | --- | --- |
| C[CH2][Sn]1([CH2]C)[O]C2C(O)OC(CO)C(O)C2[O]1 (centres undefined) | KM12 colon | inactive |
| O=C(Nc1cccnc1)c1cccs1 | KM12 colon | inactive |
| [Ce+3].[Cl-].[O-]/N=C(\c1ccccc1)c1ccccn1.[O-]/N=C(\c1ccccc1)c1ccccn1.[O-]/N=C(\c1ccccc1)c1ccccn1 | KM12 colon | inactive |
| C[C@H](Nc1ccc(C#N)n(C)c1=O)c1cc2cc(Cl)ccc2[nH]c1=O | KM12 colon | inactive |
| CCCCCCCCCCCCCCCCCC(=O)[O][Sn]([CH2]CCC)([CH2]CCC)[CH2]CCC | KM12 colon | active |
| COc1cc(-c2nn(C)nc2-c2cc3ccccc3s2)cc(OC)c1OC | KM12 colon | active |

Enquiry: Could you kindly confirm the outcome this assay logged for `NC(=O)Cc1ccccc1Oc1nccc(-c2c(-c3ccc(F)cc3)ncn2C2CCNCC2)n1` ?
Return: inactive

Enquiry: Could you kindly confirm the outcome this assay logged for `O=C(Nc1cccc(-n2cc(-c3ccncc3)c(-c3cc(O)cc(Cl)c3)n2)c1)Nc1ccc(Cl)c(Cl)c1` ?
Return: inactive

Enquiry: Could you kindly confirm the outcome this assay logged for `Cc1oncc1C(=O)Nc1ccc(C(F)(F)F)cc1` ?
Return: inactive

----------
Test system: HOP-92 NSCLC
Test: NCI tumour cell line growth inhibition, 48 h
Experimental Readout: TGI (µM)
# number only, unit µM dropped from output

Below are worked cases with known answers.
| Compound | Unit Abbrev | TGI |
| --- | --- | --- |
| CCC1(O)C(=O)OCc2c1cc1n(c2=O)Cc2c-1nc1ccccc1c2OC (configuration not stated) | µM | 3.57 |
| C/C=C/C=C/C1=NN(c2cccc(S(=O)(=O)O)c2)C2(C1)C(Cl)C(=O)N2c1nc2ccccc2s1 (configuration not stated) | µM | 48.2 |
| CN(C)c1ccc(/C=C2\C[C@H]3[C@@H]4CCC5=CC(=O)CC[C@]5(C)[C@H]4CC[C@]3(C)C2=O)cc1 | µM | 66.1 |
| COc1cc2c3c(n(CCCN=[N+]=[N-])c(=O)c2cc1OC)-c1ccc(N)cc1C3=O | µM | 0.86 |

Kindly review the next compound as well.
Enquiry: Can you look up the measured TGI of `C[C@H](Nc1ccc(C#N)n(C)c1=O)c1cc2cc(Cl)ccc2[nH]c1=O` for me?
Return: 37.3

----------
System: SW-620 colon
Assay: NCI tumour cell line growth inhibition, 48 h
Experimental Readout: TGI

Enquiry: Can you look up the measured TGI of `CN(C)C(=O)c1nnsc1NN=O` for me?
Return: > 100 µM

Enquiry: Can you look up the measured TGI of `Clc1ccc(NCc2nnc(COc3ccc(OCc4nnc(CNc5ccc(Cl)cc5)o4)c(Cl)c3)o2)cc1` for me?
Return: > 100 µM

Enquiry: Can you look up the measured TGI of `COC(=O)/C=C1/OC(c2ccc(Br)cc2)=C(Br)C1=O` for me?
Return: 7.49 µM

Enquiry: Can you look up the measured TGI of `CCOC(=O)/C(=C/c1cc(OC)ccc1OC)CC(=O)O` for me?
Return: > 100 µM
